System: Saccharomyces cerevisiae lifespan shortening, growth inhibition
Test: yeast lifespan shortening compounds, dose response (AID 849);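 note: yeast growth read as optical density after two days at 30 degrees C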
Activity calls are given as the source filed them. The rule behind the calls is not given here.
Labels: active, inactive

[
  {
    "compound": "N/C(Cc1ccc(Cl)cc1)=N\\OC(=O)c1cccc2ccccc12",
    "cat": "active"
  },
  {
    "compound": "Cc1nc2ccccc2c2nc3ccccc3n12",
    "cat": "active"
  },
  {
    "compound": "Oc1ccc(N=Nc2cccc(Cl)c2)cc1C=Nc1ccc(N2CCOCC2)cc1",
    "cat": "inactive"
  },
  {
    "compound": "CCCc1cc(C(=O)Cc2ccc(F)cc2)c(O)cc1O",
    "cat": "active"
  },
  {
    "compound": "C(=C\\c1nc(N2CCCCCC2)c2ccccc2n1)/c1ccccc1",
    "cat": "active"
  },
  {
    "compound": "Cc1cccc(N=C2Sc3nc4c(C)c(C)ccc4cc3CN2CCN2CCOCC2)c1",
    "cat": "active"
  },
  {
    "compound": "CCOC(=O)c1cc([N+](=O)[O-])c([N+](=O)[O-])cc1NC(C)=O",
    "cat": "active"
  },
  {
    "compound": "NC(=O)c1sc2nc(-c3ccco3)ccc2c1N",
    "cat": "inactive"
  },
  {
    "compound": "Cc1cc([N+](=O)[O-])ccc1-c1ccc(C2Nc3ccccc3C(=O)N2O)o1 (stereo not given)",
    "cat": "inactive"
  },
  {
    "compound": "O=C1OCC(CO)(CO)N=C1NNc1ccccc1Cl",
    "cat": "active"
  },
  {
    "compound": "Cc1oc(-c2cccs2)nc1CS(=O)CC(=O)NC1CCCCCC1 (stereo not given)",
    "cat": "inactive"
  },
  {
    "compound": "Cc1cccc(/C=C/C(=O)c2cc(Br)ccc(=O)c2O)c1",
    "cat": "active"
  },
  {
    "compound": "CCCCNC(=S)NCc1ccc2c(c1)cc(C)n2C",
    "cat": "inactive"
  },
  {
    "compound": "Cc1ccc(/C=C/C(=O)c2ccccc(=O)c2O)c(C)c1",
    "cat": "active"
  },
  {
    "compound": "COc1cc(CNCCN2CCOCC2)ccc1OCc1cccc(Cl)c1",
    "cat": "inactive"
  },
  {
    "compound": "COc1ccc(N/N=C(\\C#N)C(N)=O)cc1",
    "cat": "inactive"
  },
  {
    "compound": "Cc1cc(C)nc(/N=c2/ssnc2Cl)c1",
    "cat": "inactive"
  },
  {
    "compound": "O=[N+]([O-])c1ccc(N/N=C2/CCCCC2c2ccccn2)cc1 (stereo not given)",
    "cat": "active"
  },
  {
    "compound": "CCc1cc2c(cc(C(=O)O)n2C)s1",
    "cat": "active"
  },
  {
    "compound": "O=S(=O)(Nc1ccc(-n2cccc2)cc1)c1ccc(Cl)cc1Cl",
    "cat": "inactive"
  },
  {
    "compound": "CCCCCC1CCC(C(=O)O)CC1 (stereo not given)",
    "cat": "inactive"
  },
  {
    "compound": "O=C(COc1ccc(Cl)cc1)NC1=NN(c2ccccc2)C(=O)C1",
    "cat": "inactive"
  },
  {
    "compound": "CN1CCN(C2=Cc3cc(Cl)ccc3Sc3cc(F)ccc32)CC1",
    "cat": "active"
  },
  {
    "compound": "COc1cc(/C=N/N(C)c2ccccc2)cc(Cl)c1O",
    "cat": "inactive"
  },
  {
    "compound": "O=C(/C(=C/O)N=Nc1ccccc1)c1ccncc1",
    "cat": "active"
  }
]
